In this section, each of the compounds is paired with its reported hERG current change (%, negative = inhibition) at 1uM.
Target: human ether-à-go-go-related gene (hERG) potassium channel (human, UniProt Q12809)
Sequence (Q12809 whole entry, looked up): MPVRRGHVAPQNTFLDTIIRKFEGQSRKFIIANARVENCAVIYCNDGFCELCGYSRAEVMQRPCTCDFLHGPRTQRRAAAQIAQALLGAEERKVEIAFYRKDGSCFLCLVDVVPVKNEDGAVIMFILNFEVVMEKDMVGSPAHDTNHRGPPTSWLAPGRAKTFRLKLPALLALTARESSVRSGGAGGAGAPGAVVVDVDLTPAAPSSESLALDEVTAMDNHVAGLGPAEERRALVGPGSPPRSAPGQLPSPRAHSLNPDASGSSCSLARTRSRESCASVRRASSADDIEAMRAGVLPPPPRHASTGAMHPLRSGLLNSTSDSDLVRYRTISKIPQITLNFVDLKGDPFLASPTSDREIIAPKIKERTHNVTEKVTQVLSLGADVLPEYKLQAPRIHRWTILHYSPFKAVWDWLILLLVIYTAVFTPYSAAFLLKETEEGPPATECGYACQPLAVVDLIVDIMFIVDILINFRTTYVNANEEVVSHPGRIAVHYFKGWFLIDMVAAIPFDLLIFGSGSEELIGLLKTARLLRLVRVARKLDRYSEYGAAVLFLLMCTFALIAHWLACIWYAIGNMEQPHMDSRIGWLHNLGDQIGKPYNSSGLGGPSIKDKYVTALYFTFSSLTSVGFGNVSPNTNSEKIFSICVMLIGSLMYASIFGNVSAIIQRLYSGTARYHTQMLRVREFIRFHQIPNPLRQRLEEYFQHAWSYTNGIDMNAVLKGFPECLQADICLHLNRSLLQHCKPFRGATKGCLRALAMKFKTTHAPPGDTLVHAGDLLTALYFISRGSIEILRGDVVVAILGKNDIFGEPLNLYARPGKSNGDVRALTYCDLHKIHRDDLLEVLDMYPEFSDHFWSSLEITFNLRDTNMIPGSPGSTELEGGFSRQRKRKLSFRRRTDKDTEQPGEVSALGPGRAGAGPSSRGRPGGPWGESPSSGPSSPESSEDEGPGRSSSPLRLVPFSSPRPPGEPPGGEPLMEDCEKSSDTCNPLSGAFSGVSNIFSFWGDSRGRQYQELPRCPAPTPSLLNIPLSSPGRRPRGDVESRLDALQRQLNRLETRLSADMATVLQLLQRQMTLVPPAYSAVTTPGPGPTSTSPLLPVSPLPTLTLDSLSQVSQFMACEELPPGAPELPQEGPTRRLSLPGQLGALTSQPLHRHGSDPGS
Assay: primary screen, population patch clamp on CHO cells stably expressing hERG; higher = less effect of the substance
Hit rate of the full screen: of about 310,000 compounds, about 2,200 (0.71%) showed an effect of 50% or more. Effects have a minus sign here. The list comes from a sample in which strong results are over-represented; it also holds close analogues and randomly drawn compounds.
# answer = value followed by unit

COc1ccc(C)cc1NC(=O)COC(=O)C1CC1    6.74%
O=C(COc1ccc(Cl)cc1Cl)Nc1nc2n(n1)C(c1ccccc1)CC(=O)N2 (centres unmarked)    1.52%
COc1ccc(C)cc1NC(=O)COC(=O)C1CCN(C(=O)c2ccc(Cl)cc2)CC1    -57.7%
Cc1cccc(NC(=O)CN2CCOCC2)c1C    12.2%

Task: Record "Cc1cccc(NC(=O)CNC(=O)COc2ccc(-c3ccc(C#N)cc3)cc2)c1C" : what is its hERG current change (%, negative = inhibition) at 1uM with human ether-à-go-go-related gene (hERG) potassium channel (human, UniProt Q12809)?
Result: 8.38%

Data credit: paper PMC4336329
